assay: Intrinsic clearance in Wistar rat liver microsomes at 1 uM up to 15 mins in presence of NADPH by LC-MS-MS analysis; type: ADME; settings: read-out: CLH
Let's look at some compounds and their measured microsomal CLint at 1 µM.
Readout type: microsomal CLint at 1 µM (µL/min/mg)

{"Compound": "[2H]C([2H])(c1ccccc1)N1C[C@@H](C)N(C(=O)Nc2cccnc2)[C@@H](C)c2ccncc21 (racemic)", "Result comparator": "=", "Val": 855}
{"Compound": "C[C@@H]1CN(Cc2ccccc2)c2cnccc2[C@H](C)N1C(=O)CCc1ccc(F)cc1 (racemic)", "Result comparator": ">", "Val": 1250}
{"Compound": "C[C@@H]1CN(Cc2ccccc2F)c2cnccc2[C@H](C)N1C(=O)NCc1ccccc1 (racemic)", "Result comparator": ">", "Val": 1250}
{"Compound": "COc1ccc(CNC(=O)N2[C@H](C)CN(Cc3ccc(C(F)(F)F)o3)c3cnccc3[C@@H]2C)cc1 (racemic)", "Result comparator": "=", "Val": 447}
{"Compound": "[2H]C([2H])(c1ccccc1)N1C[C@@H](C)N(C(=O)NCc2ccccc2)[C@@H](C)c2ccncc21 (racemic)", "Result comparator": ">", "Val": 1250}
{"Compound": "CC(C)CCN1C[C@@H](C)N(C(=O)Nc2cccnc2)[C@@H](C)c2ccncc21 (racemic)", "Result comparator": "=", "Val": 496}
{"Compound": "COc1ccc(CNC(=O)N2[C@H](C)CN(CCC(C)C)c3cnccc3[C@@H]2C)cc1 (racemic)", "Result comparator": "=", "Val": 885}
{"Compound": "COc1ccc(CNC(=O)N2[C@H](C)CN(Cc3ccccc3)c3cnccc3[C@@H]2C)cc1 (racemic)", "Result comparator": "=", "Val": 1140}
{"Compound": "C[C@@H]1CN(Cc2ccccc2)c2cnccc2[C@H](C)N1C(=O)Nc1cccnc1 (racemic)", "Result comparator": "=", "Val": 562}
{"Compound": "C[C@@H]1CN(Cc2ccccc2)c2cncc(F)c2[C@H](C)N1C(=O)Nc1cccnc1 (racemic)", "Result comparator": "=", "Val": 500}
{"Compound": "C[C@@H]1CN(Cc2ccc(C(F)(F)F)o2)c2cnccc2[C@H](C)N1C(=O)NCc1ccccc1 (racemic)", "Result comparator": "=", "Val": 1180}
{"Compound": "C[C@@H]1CN(Cc2ccccc2)c2ccccc2[C@H](C)N1C(=O)NCc1ccccc1 (racemic)", "Result comparator": ">", "Val": 1250}
{"Compound": "COCCC(=O)N1[C@H](C)CN(Cc2ccccc2)c2ccccc2[C@@H]1C (racemic)", "Result comparator": ">", "Val": 1250}

###

Let's look at some molecules and their measured IC50.
target: Voltage-dependent T-type calcium channel subunit alpha-1I (Homo sapiens, UniProt Q9P0X4); assay: Channel blocking activity at recombinant human CaV 3.3 channel expressed in HEK293 cells assessed as inhibition of Ca2+ flux preincubated for 3 mins followed by CaCl2 addition by fluo-4 dye-based FLIPR assay
Sequence (Q9P0X4 whole entry): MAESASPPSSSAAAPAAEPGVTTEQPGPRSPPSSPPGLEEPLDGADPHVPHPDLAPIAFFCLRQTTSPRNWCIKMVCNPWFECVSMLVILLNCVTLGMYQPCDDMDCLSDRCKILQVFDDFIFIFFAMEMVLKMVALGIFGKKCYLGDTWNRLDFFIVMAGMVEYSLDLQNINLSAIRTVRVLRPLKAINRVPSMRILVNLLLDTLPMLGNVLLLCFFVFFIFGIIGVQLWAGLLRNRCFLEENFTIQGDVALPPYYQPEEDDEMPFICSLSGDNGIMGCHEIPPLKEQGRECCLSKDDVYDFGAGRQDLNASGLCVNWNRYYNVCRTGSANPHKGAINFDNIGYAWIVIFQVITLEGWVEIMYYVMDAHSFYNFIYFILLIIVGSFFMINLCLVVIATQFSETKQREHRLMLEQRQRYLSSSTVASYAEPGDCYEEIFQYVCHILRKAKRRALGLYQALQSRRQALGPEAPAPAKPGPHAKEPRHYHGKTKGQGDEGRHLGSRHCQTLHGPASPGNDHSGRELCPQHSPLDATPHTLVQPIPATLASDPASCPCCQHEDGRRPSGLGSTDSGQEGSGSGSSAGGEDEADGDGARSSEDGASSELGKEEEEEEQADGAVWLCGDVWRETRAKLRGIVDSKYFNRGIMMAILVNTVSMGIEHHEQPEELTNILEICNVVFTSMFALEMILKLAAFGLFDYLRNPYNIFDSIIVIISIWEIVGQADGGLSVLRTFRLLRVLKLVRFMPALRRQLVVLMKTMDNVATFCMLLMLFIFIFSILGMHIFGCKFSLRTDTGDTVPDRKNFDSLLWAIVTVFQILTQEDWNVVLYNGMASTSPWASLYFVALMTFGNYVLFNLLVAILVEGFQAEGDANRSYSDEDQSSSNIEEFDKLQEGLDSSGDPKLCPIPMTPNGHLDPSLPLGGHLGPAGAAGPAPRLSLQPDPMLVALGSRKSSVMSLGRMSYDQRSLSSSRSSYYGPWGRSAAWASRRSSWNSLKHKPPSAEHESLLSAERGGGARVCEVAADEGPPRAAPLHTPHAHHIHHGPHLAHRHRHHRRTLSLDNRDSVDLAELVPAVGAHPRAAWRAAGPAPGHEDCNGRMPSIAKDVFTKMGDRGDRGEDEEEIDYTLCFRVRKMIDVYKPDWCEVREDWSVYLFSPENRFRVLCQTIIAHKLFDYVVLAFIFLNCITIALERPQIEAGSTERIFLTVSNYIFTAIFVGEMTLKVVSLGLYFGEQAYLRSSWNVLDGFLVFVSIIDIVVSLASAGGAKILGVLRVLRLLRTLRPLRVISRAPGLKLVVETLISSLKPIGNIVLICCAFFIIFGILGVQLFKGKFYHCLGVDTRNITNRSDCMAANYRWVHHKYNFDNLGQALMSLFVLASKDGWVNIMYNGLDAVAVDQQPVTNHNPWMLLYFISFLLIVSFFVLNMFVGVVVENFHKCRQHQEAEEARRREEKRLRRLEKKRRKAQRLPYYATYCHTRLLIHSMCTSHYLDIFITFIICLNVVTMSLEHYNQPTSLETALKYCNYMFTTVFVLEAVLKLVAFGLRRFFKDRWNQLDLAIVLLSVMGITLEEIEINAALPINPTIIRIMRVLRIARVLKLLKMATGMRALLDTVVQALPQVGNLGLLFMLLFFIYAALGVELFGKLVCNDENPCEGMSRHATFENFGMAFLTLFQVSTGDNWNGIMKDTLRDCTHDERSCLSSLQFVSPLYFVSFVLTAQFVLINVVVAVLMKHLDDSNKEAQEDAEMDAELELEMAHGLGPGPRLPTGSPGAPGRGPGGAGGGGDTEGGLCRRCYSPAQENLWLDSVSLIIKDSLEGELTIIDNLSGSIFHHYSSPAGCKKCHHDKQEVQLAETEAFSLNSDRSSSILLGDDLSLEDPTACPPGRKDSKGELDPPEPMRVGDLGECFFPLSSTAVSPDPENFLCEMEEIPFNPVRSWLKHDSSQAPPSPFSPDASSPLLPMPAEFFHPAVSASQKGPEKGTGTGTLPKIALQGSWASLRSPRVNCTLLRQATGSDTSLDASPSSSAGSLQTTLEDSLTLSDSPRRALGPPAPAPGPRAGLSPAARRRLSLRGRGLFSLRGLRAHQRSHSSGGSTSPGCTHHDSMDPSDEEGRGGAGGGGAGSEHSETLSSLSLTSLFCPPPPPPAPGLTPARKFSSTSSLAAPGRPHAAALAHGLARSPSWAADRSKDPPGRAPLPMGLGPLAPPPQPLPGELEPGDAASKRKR

{"Molecule": "C[C@@H]1CN(Cc2ccccc2)c2ccccc2[C@H](C)N1C(=O)NC1COC1 (racemic)", "Units symbol": "nM", "Result comparator": "=", "IC50": 12}
{"Molecule": "C[C@@H]1CN(CC2CCCC2)c2ccccc2[C@H](C)N1C(=O)Nc1cccnc1 (racemic)", "Units symbol": "nM", "Result comparator": "=", "IC50": 14}
{"Molecule": "C[C@@H]1CN(Cc2cnc(C(F)(F)F)s2)c2cccc(F)c2[C@H](C)N1C(=O)CCc1cccnc1 (racemic)", "Units symbol": "nM", "Result comparator": "=", "IC50": 20}
{"Molecule": "C[C@@H]1CN(Cc2ccc(F)cc2)c2ccccc2[C@H](C)N1C(=O)Nc1cccnc1 (racemic)", "Units symbol": "nM", "Result comparator": "=", "IC50": 7}
{"Molecule": "C[C@@H]1CN(Cc2ccccc2)c2ccccc2[C@H](C)N1C(=O)NCc1ccccc1 (racemic)", "Units symbol": "nM", "Result comparator": "=", "IC50": 8}
{"Molecule": "C[C@@H]1CN(Cc2ccccc2)c2cc(Br)ccc2[C@H](C)N1C(=O)Nc1cccnc1 (racemic)", "Units symbol": "nM", "Result comparator": "=", "IC50": 137}
{"Molecule": "C[C@@H]1CN(S(=O)(=O)c2ccccc2)c2ccccc2[C@H](C)N1C(=O)Nc1cccnc1 (racemic)", "Units symbol": "nM", "Result comparator": "=", "IC50": 1810}
{"Molecule": "C[C@@H]1CN(Cc2ccccc2)c2cccnc2[C@H](C)N1C(=O)NCc1ccccc1 (racemic)", "Units symbol": "nM", "Result comparator": "=", "IC50": 91}
{"Molecule": "C[C@@H]1CN(Cc2ccccc2)c2ccccc2[C@H](C)N1CC1CCOCC1 (racemic)", "Units symbol": "nM", "Result comparator": ">", "IC50": 10000}
{"Molecule": "C[C@H]1c2ccccc2N(Cc2ccccc2)[C@@H](C)CN1C(=O)NCc1ccccc1 (racemic)", "Units symbol": "nM", "Result comparator": "=", "IC50": 1000}
{"Molecule": "C[C@@H]1CN(Cc2cccnc2)c2ccccc2[C@H](C)N1C(=O)NCc1ccccc1 (racemic)", "Units symbol": "nM", "Result comparator": "=", "IC50": 95}
{"Molecule": "C[C@@H]1CN(Cc2ccc(C(F)(F)F)o2)c2ccccc2[C@H](C)N1C(=O)NCc1ccccc1 (racemic)", "Units symbol": "nM", "Result comparator": "=", "IC50": 6}
{"Molecule": "COc1cccc2c1N(Cc1ccccc1)C[C@@H](C)N(C(=O)Nc1cccnc1)[C@H]2C (racemic)", "Units symbol": "nM", "Result comparator": ">", "IC50": 9000}
{"Molecule": "COc1ccc2c(c1)N(Cc1ccccc1)C[C@@H](C)N(C(=O)Nc1cccnc1)[C@H]2C (racemic)", "Units symbol": "nM", "Result comparator": "=", "IC50": 610}
{"Molecule": "C[C@@H]1CN(Cc2cccc(C(F)(F)F)n2)c2ccccc2[C@H](C)N1C(=O)NCc1ccccc1 (racemic)", "Units symbol": "nM", "Result comparator": "=", "IC50": 14}
{"Molecule": "O=C(NCc1ccccc1)N1CCN(Cc2ccccc2)c2ccccc2C1", "Units symbol": "nM", "Result comparator": "=", "IC50": 214}
{"Molecule": "C[C@@H]1CN(Cc2ccccc2)c2ccccc2[C@H](C)N1C(=O)Cc1cncs1 (racemic)", "Units symbol": "nM", "Result comparator": "=", "IC50": 6}
{"Molecule": "[2H]C([2H])(c1ccccc1)N1C[C@@H](C)N(C(=O)Nc2cccnc2)[C@@H](C)c2ccncc21 (racemic)", "Units symbol": "nM", "Result comparator": "=", "IC50": 148}
{"Molecule": "CCN1C[C@@H](C)N(C(=O)NCc2ccccc2)[C@@H](C)c2ccccc21 (racemic)", "Units symbol": "nM", "Result comparator": "=", "IC50": 139}
{"Molecule": "C[C@@H]1c2ccccc2N(Cc2ccccc2)C[C@H](C)N1C(=O)NCc1ccccc1", "Units symbol": "nM", "Result comparator": "=", "IC50": 641}
{"Molecule": "C[C@@H]1CN(Cc2ccccc2)c2ncc(F)cc2[C@H](C)N1C(=O)NCc1ccccc1 (racemic)", "Units symbol": "nM", "Result comparator": "=", "IC50": 15}
{"Molecule": "C[C@@H]1CN(Cc2ccccc2F)c2ccccc2[C@H](C)N1C(=O)Nc1cccnc1 (racemic)", "Units symbol": "nM", "Result comparator": "=", "IC50": 5}
{"Molecule": "COc1cccc2c1[C@H](C)N(C(=O)Nc1cccnc1)[C@H](C)CN2Cc1ccccc1 (racemic)", "Units symbol": "nM", "Result comparator": "=", "IC50": 130}
{"Molecule": "C[C@@H]1CN(Cc2ccccc2)c2ccccc2C(=O)N1CCc1ccccc1 (racemic)", "Units symbol": "nM", "Result comparator": "=", "IC50": 1590}
{"Molecule": "[2H]C([2H])(c1ccccc1)N1C[C@@H](C)N(C(=O)NCc2ccccc2)[C@@H](C)c2ccncc21 (racemic)", "Units symbol": "nM", "Result comparator": "=", "IC50": 15}
{"Molecule": "COc1ccc(CN2C[C@@H](C)N(C(=O)NCc3ccccc3)[C@@H](C)c3ccccc32)cn1 (racemic)", "Units symbol": "nM", "Result comparator": "=", "IC50": 10}
{"Molecule": "C[C@@H]1CN(Cc2ccc(F)c(F)c2)c2ccccc2[C@H](C)N1C(=O)Nc1cccnc1 (racemic)", "Units symbol": "nM", "Result comparator": "=", "IC50": 6}
{"Molecule": "C[C@@H]1CN(Cc2ccccc2)c2ccccc2[C@H](C)N1S(=O)(=O)c1cn(C)cn1 (racemic)", "Units symbol": "nM", "Result comparator": "=", "IC50": 210}
{"Molecule": "C[C@@H]1CN(Cc2ccccn2)c2ccccc2[C@H](C)N1C(=O)NCc1ccccc1 (racemic)", "Units symbol": "nM", "Result comparator": "=", "IC50": 97}
{"Molecule": "C[C@@H]1CN(Cc2cccc(F)c2)c2ccccc2[C@H](C)N1C(=O)Nc1cccnc1 (racemic)", "Units symbol": "nM", "Result comparator": "=", "IC50": 5}
{"Molecule": "C[C@H]1c2ccccc2N(Cc2ccccc2)CCN1C(=O)NCc1ccccc1 (racemic)", "Units symbol": "nM", "Result comparator": "=", "IC50": 164}
{"Molecule": "C[C@@H]1CN(Cc2ccc(C(F)(F)F)o2)c2ccccc2[C@H](C)N1C(=O)Nc1cccnc1 (racemic)", "Units symbol": "nM", "Result comparator": "=", "IC50": 9}
{"Molecule": "C[C@@H]1CN(C(=O)NCc2ccccc2)[C@@H](C)c2ccccc2N1Cc1ccccc1 (racemic)", "Units symbol": "nM", "Result comparator": "=", "IC50": 326}
{"Molecule": "C[C@@H]1CNc2ccccc2[C@H](C)N1C(=O)NCc1ccccc1 (racemic)", "Units symbol": "nM", "Result comparator": ">", "IC50": 8600}
